# Test system: Tobacco Budworm (Heliothis virescens)
# procedureDetails: Tobacco Budworm control, 96-well microtiter plates with insect diet and eggs
# Type: in vivo
# particulars: Heliothis virescens, 120 h; 2500ppm; sprayed onto insect diet; 5 days; in comparison with untreated controls; read-out: mortality (Egg and larval mortality)
reportedMetric: mortality at 2500 ppm

- compound: "N#Cc1c(NC2=NOC(c3cc(Cl)cc(Cl)c3)(C(F)(F)F)C2)cccc1C(=O)NC1CC1 (stereo not drawn) [I-173]"
  mortality at 2500 ppm: "≥ 75%"
- compound: "CC(=O)Nc1c(F)ccc(NC(=O)c2cc(NC3=NOC(c4cc(Cl)cc(Cl)c4)(C(F)(F)F)C3)ccc2Cl)c1F (stereo not drawn) [I-6]"
  mortality at 2500 ppm: "≥ 75%"
- compound: "N#CC1(NC(=O)c2cc(NC3=NOC(c4cc(Cl)cc(Cl)c4)(C(F)(F)F)C3)ccc2Cl)CC1 (stereo not drawn) [I-3]"
  mortality at 2500 ppm: "≥ 75%"
- compound: "CCN1OC[C@@H](NC(=O)c2cc(NC3=NOC(c4cc(Cl)cc(Cl)c4)(C(F)(F)F)C3)ccc2F)C1=O (stereo partly drawn) [I-162]"
  mortality at 2500 ppm: "≥ 75%"
- compound: "O=C(Nc1ccc(F)c(NC(=O)C(F)(F)F)c1F)c1cc(NC2=NOC(c3cc(Cl)cc(Cl)c3)(C(F)(F)F)C2)ccc1Cl (stereo not drawn) [I-8]"
  mortality at 2500 ppm: "≥ 75%"

Which mortality at 2500 ppm is reported for this compound? O=C(Nc1ccc(F)c(NC(=O)C(F)(F)Cl)c1F)c1cc(NC2=NOC(c3cc(Cl)cc(Cl)c3)(C(F)(F)F)C2)ccc1Cl (stereo not drawn) [I-7]
≥ 75%
